Measured normalized growth, listed per entry.
# PROTOCOL_SUMMARY: chemical genetic growth profiling, strain panel (AID 1159580);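 further: tested at 20 µM; growth read once vehicle control cultures reached saturation at 30 °C; 1 = growth at the plate median or of vehicle wells; lower values mean less growth of the strain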
# CONDITION_DETAILS: S. cerevisiae deletion strains, growth OD, locus YKL009W, strain mrt4, hits give low values
Out of some 5,500 compounds screened, about 2,000 (36%) were called active. About 18% were inconclusive and are not listed. The list shows a part of the results. Where a SMILES comes first, the peptide text is derived from it.
Keep the answer to the number alone.

Use the examples below as a reference point.
COMPOUND	ENDPOINT_RESULT
NCC[C@@H](O)C(=O)N[C@@H]1C[C@H](N)[C@@H](O[C@H]2O[C@H](CN)[C@@H](O)[C@H](O)[C@H]2O)[C@H](O)[C@H]1O[C@H]1O[C@H](CO)[C@@H](O)[C@H](N)C1O (some centres undefined)	1.02
COC[C@]12CN(C=O)C3[C@@H]4[C@H](OC)C1[C@]3(C1CC3(O)C(OC)C(O)C4(OC(C)=O)C1C3OC(=O)c1ccccc1)[C@@H](OC)C[C@H]2O (some centres undefined)	0.991
CC(=O)O[C@]1(C)CC[C@@]23CC1C(C)(C)[C@@H]2CC[C@H]3C	1.08
Clc1ccc(C(c2ccccc2Cl)C(Cl)Cl)cc1 (centres undefined)	0.98

Item COC(=O)[C@@H]1OC(=O)C2OC23[C@@]1(C)CCC1[C@]2(C)C(C[C@@H](O)[C@]13C)C(C)(C)[C@H](OC(C)=O)C[C@@H]2OC(C)=O (some centres undefined) has what recorded normalized growth?
0.998

Try this compound too: CCCCCCCCCCCCCC(=O)OC1C(C)C2(O)C(C=C(CO)CC3(O)C(=O)C(C)=CC32)C2C(C)(C)C12OC(C)=O (centres undefined)
0.973

Try this compound too: CC(=O)N[C@@H](CC(=O)O)C(=O)N[C@@H](CCC(=O)O)C(=O)O (Ac-Asp-Glu-OH)
0.987

Try this compound too: CC(C)(S)[C@@H](N)C(=O)O
0.988

Try this compound too: CC(=O)N[C@@H](CCC(=O)O)C(=O)O
1.06

---

Measured normalized growth, listed per entry.
# PROTOCOL_SUMMARY: chemical genetic growth profiling, strain panel (AID 1159580)
# CONDITION_DETAILS: S. cerevisiae deletion strains, growth OD, locus YER155C, strain BEM2 (second series), hits give low values
The campaign covered roughly 5,500 compounds. About 2,000 (36%) were called active. Another 18% or so got no clear call; they are omitted. This is one part of the list.

Use the examples below as a reference point.
COMPOUND	ENDPOINT_RESULT
CC(=O)O[C@H]1CC[C@@]2(C)C(C[C@@H](OC(C)=O)[C@]3(C)C2CC[C@@]2(C)[C@H](c4ccoc4)OC(=O)[C@H]4O[C@]423)C1(C)C (stereo partly specified)	0.988 (inactive)
CC(=O)O[C@@H]1CC2C(C)(C)[C@H](O)CC[C@]2(C)C2CC[C@@]3(C)[C@H](c4ccoc4)OC(=O)C4OC43[C@@]21C (stereo partly specified)	1.03 (inactive)
CC(=O)O[C@@H]1CC2C(C)(C)[C@@H](O)CC[C@]2(C)C2CC[C@@]3(C)[C@H](c4ccoc4)OC(=O)[C@H]4O[C@]43[C@@]21C (stereo partly specified)	1.01 (inactive)
CC1(C)C(=O)[C@@H]2O[C@@H]2[C@@]2(C)C1C[C@@H](O)[C@]1(C)C2CC[C@@]2(C)[C@H](c3ccoc3)OC(=O)C3OC321 (stereo partly specified)	1 (inactive)
CC(=O)O[C@@H]1CC2C(C)(C)[C@H](O)C=C[C@]2(C)C2CC[C@@]3(C)[C@H](c4ccoc4)OC(=O)C4OC43[C@@]21C (stereo partly specified)	1.03 (inactive)

# context switch: different compound, same normalized growth
Item CC(=O)O[C@H]1C[C@@H](OC(C)=O)C(C)(C)C2C[C@@H](OC(C)=O)[C@]3(C)C(CC[C@@]4(C)[C@H](c5ccoc5)OC(=O)[C@H]5O[C@]543)[C@]21C (stereo partly specified) has what recorded normalized growth?
0.996 (inactive)

---

# PROTOCOL_SUMMARY: chemical genetic growth profiling, strain panel (AID 1159580)
# CONDITION_DETAILS: S. cerevisiae deletion strains, growth OD, locus YGR229C, strain SMI1, hits give low values
About 2,000 (36%) of roughly 5,500 compounds were called active. Roughly 18% stayed inconclusive and do not appear here. Some of the results follow.
READOUT_KIND: normalized growth
Keep the answer to the number alone.

COMPOUND	normalized growth
O=C1CCCN1CC#CCN1CCCC1	1

Item C[C@]12CCC3c4ccc(OC(=O)CCC(=O)O)cc4CCC3C1CCC2=O (stereo partly specified) has what recorded normalized growth?
1.03

Try this compound too: FC(F)(F)c1cc(Cl)c2nsnc2c1
1

Try this compound too: CCc1cccc(C)c1NC(=O)CC(C)(C)CC(=O)O
0.992

Try this compound too: CC12CCC3C(=CCc4cc(O)ccc43)C1CCC2=O (stereo unspecified)
0.964

---

# PROTOCOL_SUMMARY: chemical genetic growth profiling, strain panel (AID 1159580);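 further: tested at 20 µM; growth read once vehicle control cultures reached saturation at 30 °C; 1 = growth at the plate median or of vehicle wells; lower values mean less growth of the strain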
# CONDITION_DETAILS: S. cerevisiae deletion strains, growth OD, locus YDR052C, strain DBF4, hits give low values
Among all 5,500 compounds or so, about 2,000 (36%) were called active. About 18% were inconclusive and are not listed. The list shows a part of the results.
READOUT_KIND: normalized growth
Keep the answer to the number alone.

MOLECULE	normalized growth
O=S(=O)(Nc1csc(C(F)(F)F)c1-c1ccccc1)c1cc(Br)c(Br)s1	0.961
O=S(=O)(Nc1cc(Cl)c(Cl)cc1Cl)c1cc(C(F)(F)F)cc(C(F)(F)F)c1	0.941
Cc1ccc(-c2nc(NS(=O)(=O)c3cccc4nonc34)sc2C)cc1Cl	0.972
Cc1noc(C)c1S(=O)(=O)Nc1csc(C(F)(F)F)c1-c1ccccc1	0.979
Cn1nccc1-c1cc(Cl)cc(Cl)c1O	0.971

Item COc1ccc(Nc2nc(NC(=O)Nc3ccc(Cl)cc3)n[nH]2)cc1 has what recorded normalized growth?
1

---

# PROTOCOL_SUMMARY: chemical genetic growth profiling, strain panel (AID 1159580);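 further: tested at 20 µM; growth read once vehicle control cultures reached saturation at 30 °C; 1 = growth at the plate median or of vehicle wells; lower values mean less growth of the strain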
# CONDITION_DETAILS: S. cerevisiae deletion strains, growth OD, locus YOR329C, strain SCD5
Out of some 5,500 compounds screened, about 2,000 (36%) were called active. Inconclusive results (about 18%) are left out. Cut-off read from the data, not from the text of the source: active = normalized growth mostly below about 0.91 (no sharp cut-off); inconclusive = no clear call, values can overlap the other calls; inactive = mostly above about 0.92. The list shows a part of the results.
Return exactly one item of active, inactive

These solved cases illustrate the format of a correct answer.
MOLECULE	CLASSIFICATION
Clc1cccc(Nc2ncc(-c3ccc4c(c3)OCCCO4)s2)c1	inactive
Clc1ccc(Oc2ccnc3cc(Cl)ccc23)cc1	inactive
FC(F)(F)c1cc(NC(=S)SCCSC(=S)Nc2cc(C(F)(F)F)cc(C(F)(F)F)c2)cc(C(F)(F)F)c1	inactive
C[C@@H](Nc1ncnc2sc3c(c12)CCCC3)c1ccccc1	inactive
Clc1ccc(-c2cnc(Nc3cc(Cl)cc(Cl)c3)s2)cc1	active
Cc1ccc(NC(=S)C(C#N)C(=O)N2CCOCC2)c(C)c1 (configuration not stated)	inactive

// next entry
Give the logged outcome of this assay for the following molecule: O=C(Nc1cc(Cl)ccc1O)c1ccccc1CSc1ccc(Cl)cc1
inactive

---

Measured normalized growth, listed per entry.
# PROTOCOL_SUMMARY: chemical genetic growth profiling, strain panel (AID 1159580);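 further: tested at 20 µM; growth read once vehicle control cultures reached saturation at 30 °C; 1 = growth at the plate median or of vehicle wells; lower values mean less growth of the strain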
# CONDITION_DETAILS: S. cerevisiae deletion strains, growth OD, locus YDR297W, strain sur2, hits give low values
Hit rate of the full screen: of about 5,500 compounds, about 2,000 (36%) were called active. Roughly 18% stayed inconclusive and do not appear here. Some of the results follow.
Keep the answer to the number alone.

MOLECULE	ENDPOINT_RESULT
CC(C)/C(O)=C1/C(=O)O[C@@H](c2ccoc2)[C@]2(C)C(O)[C@@H](O)[C@@]34OC5(C)OC67CC(C)(C(O)[C@]6(O)[C@@H](O)[C@]3(O5)C12)[C@H](CC(=O)O)[C@]74C (some centres undefined)	1.01
CCN1C[C@@]2(COC)C3[C@@H](OC)[C@H]4[C@@H]1[C@]3(C(OC)C[C@H]2O)C1C[C@@]2(O)[C@H](OC(=O)c3ccccc3)C1[C@]4(OC(C)=O)[C@@H](O)[C@@H]2OC (some centres undefined)	1.04
CN1CCC[C@@H]1CCO[C@](C)(c1ccccc1)c1ccc(Cl)cc1	0.998
O=C(O)CCC1NCC2CC1CN1CCCCC21 (centres undefined)	0.974
COC(=O)[C@@H]1OC(=O)C2OC23[C@@]1(C)CCC1[C@@]2(C)CCC(=O)C(C)(C)C2C[C@@H](OC(C)=O)[C@]13C (some centres undefined)	1.01

Item COP(=S)(OC)Oc1ccc([N+](=O)[O-])cc1 has what recorded normalized growth?
0.996

Try this molecule too: NC(N)=NCCCCN=C(N)N
0.999

Try this molecule too: CC1CCC(NC(=O)N(CCCl)N=O)CC1 (centres undefined)
0.951

Try this molecule too: C=CCS(=O)C[C@H](N)C(=O)O (some centres undefined)
1
